# Tested on: PF3D7_0420300 AP2 domain 1 (GST-tagged)
# Experimental Protocol: gcPBM binding intensity (ln(normalized median fluorescence intensity)); higher = stronger DNA binding
Over roughly 25,000 sequences, “ln(normalized median fluorescence intensity)” has its median near 9.3; the highest 2% begin near 10. The full list was thinned out, with the highest values kept by preference.
Kindly supply the reported gcPBM binding intensity (ln) values for the records listed here.
I'd appreciate a reply containing only the number, no unit.

Recorded result, CTTGTCATTTGGCACACACACATGTATAGGTTATTA [CACACA_site5656] , gcPBM binding intensity (ln): 9.9

Recorded result, AGCTCTTGTCATTTTGCACACACACCCGTATAGGTT [CACACA_site3056] , gcPBM binding intensity (ln): 10

Recorded result, GGTGGTAAAAAACCTGCATGTCGAAATATTAAATAC [TGCATGCA_site33] , gcPBM binding intensity (ln): 9.25

Recorded result, CTCTTGTCATTTTGCACACACACATGGATAGGTTAT [CACACA_site5655] , gcPBM binding intensity (ln): 10.2

Recorded result, CTTGTCATTGGGCACACACACATGTATAGGTTATTA [CACACA_site3058] , gcPBM binding intensity (ln): 9.7

Recorded result, ATGTTATAAAATATATGTACATATTTATATAAAATA [XGTACX_site5766] , gcPBM binding intensity (ln): 9.14

Recorded result, TATATTTAGTAAAAAGGTACCATTCTTATTTATATT [CACACA_negctrl_site1165] , gcPBM binding intensity (ln): 9.13

Recorded result, AGCTCTTGTCATTTTGCACACACACCGGTATAGGTT [CACACA_site5654] , gcPBM binding intensity (ln): 10.1

Recorded result, TATATATATATATATGGTACAGTTTATGCCTTTTAA [XGTACX_site6695] , gcPBM binding intensity (ln): 9.14

---

# Test system: PF3D7_0420300 AP2 domain 1 (GST-tagged)
# Experimental Protocol: gcPBM binding intensity (ln(normalized median fluorescence intensity)); higher = stronger DNA binding
Whole data set: some 25,000 sequences, median “ln(normalized median fluorescence intensity)” near 9.3, cut for the highest 2% near 10. This excerpt belongs to a sample that is enriched for the highest values.
Kindly supply the reported gcPBM binding intensity (ln) values for the records listed here.
I'd appreciate a reply containing only the number, no unit.

Form field, gcPBM binding intensity (ln) with PF3D7_0420300 AP2 domain 1 (GST-tagged), item TAACACATAAATAAATATATACATATATATAAAATA [CACACA_negctrl_site375] : 9.36

Form field, gcPBM binding intensity (ln) with PF3D7_0420300 AP2 domain 1 (GST-tagged), item GATGTGTAAATAAGGATATATAACAATCAACAAAAC [XGTACX_negctrl_site494] : 9.72

Form field, gcPBM binding intensity (ln) with PF3D7_0420300 AP2 domain 1 (GST-tagged), item AACAAATACGAACACACACACACACTAAAAAAAAAA [CACACA_site6386] : 10.2

Form field, gcPBM binding intensity (ln) with PF3D7_0420300 AP2 domain 1 (GST-tagged), item AGTATACACGAACACACACACACATATATAAATATA [CACACA_site6913] : 10.3

Form field, gcPBM binding intensity (ln) with PF3D7_0420300 AP2 domain 1 (GST-tagged), item AAATTTGGTGAAGGATGTACTTTACCTAATACTTGT [XGTACX_site4825] : 9.21

Form field, gcPBM binding intensity (ln) with PF3D7_0420300 AP2 domain 1 (GST-tagged), item CGAACAAACAAATAAACACACAAAAAAAAATATATA [CACACA_site1825] : 9.61

Form field, gcPBM binding intensity (ln) with PF3D7_0420300 AP2 domain 1 (GST-tagged), item TATATTATGACCACCACACACCTATACACATAACAT [CACACA_site7199] : 9.62

Form field, gcPBM binding intensity (ln) with PF3D7_0420300 AP2 domain 1 (GST-tagged), item AACATATACACGAACACACACACATATAAATAAATA [CACACA_site6380] : 9.96

Form field, gcPBM binding intensity (ln) with PF3D7_0420300 AP2 domain 1 (GST-tagged), item AAAGCACCCAGGCACACACACAAAGGAAAAGAAAAA [CACACA_site232] : 9.83

---

# System: PF3D7_0420300 AP2 domain 1 (GST-tagged)
# Experimental Protocol: gcPBM binding intensity (ln(normalized median fluorescence intensity)); higher = stronger DNA binding
The full ranking holds about 25,000 sequences; the median of “ln(normalized median fluorescence intensity)” is about 9.3, and the highest 2% start at about 10. Shown is part of a subset that was picked to be rich in the highest values.
Measure: gcPBM binding intensity (ln)
I'd appreciate a reply containing only the number, no unit.

Form field, gcPBM binding intensity (ln) with PF3D7_0420300 AP2 domain 1 (GST-tagged), item CATATAAATATATATACACACACACCGTAATACATA [CACACA_site9158] : 10.2

Form field, gcPBM binding intensity (ln) with PF3D7_0420300 AP2 domain 1 (GST-tagged), item TATATAAATAGACACACACACACCTTATAATTACTA [CACACA_site7828] : 10

Form field, gcPBM binding intensity (ln) with PF3D7_0420300 AP2 domain 1 (GST-tagged), item TAAAAAGGAAGACACACACACACATATATAAATATA [CACACA_site7657] : 10.2

Form field, gcPBM binding intensity (ln) with PF3D7_0420300 AP2 domain 1 (GST-tagged), item CATATAAAAAGACACACACACACATATATATATATA [CACACA_site940] : 10

Form field, gcPBM binding intensity (ln) with PF3D7_0420300 AP2 domain 1 (GST-tagged), item AAAAAAAAAAAAAACACACACACACGCATAAATATA [CACACA_site6217] : 10.1

---

# System: PF3D7_0420300 AP2 domain 1 (GST-tagged)
# Experimental Protocol: gcPBM binding intensity (ln(normalized median fluorescence intensity)); higher = stronger DNA binding
Over roughly 25,000 sequences, “ln(normalized median fluorescence intensity)” has its median near 9.3; the highest 2% begin near 10. This excerpt belongs to a sample that is enriched for the highest values.
Measure: gcPBM binding intensity (ln)

Recorded result, TACAATATTTTGAGACGTACATATATACATTTACAT [XGTACX_site5880] , gcPBM binding intensity (ln): 9.24

Recorded result, AATATAAACACAAACACACACATATATATATATATA [CACACA_site4307] , gcPBM binding intensity (ln): 9.68

Recorded result, TTAAGATAGCAAATATGTACACATTTGTAAAATAAA [XGTACX_site4837] , gcPBM binding intensity (ln): 9.25

Recorded result, ATAAAAAATATCACATAAAATAAAAAAAGAAAGGAT [XGTACX_negctrl_site294] , gcPBM binding intensity (ln): 9.62

Recorded result, CATACATACAAACACACACACATATATATATATATA [CACACA_site43] , gcPBM binding intensity (ln): 9.86

Recorded result, AACATACACATATACACACACACATATATACCTATA [CACACA_site6643] , gcPBM binding intensity (ln): 10.4

Recorded result, GGATATAACAAACACACACACACATATATATATATT [CACACA_site4141] , gcPBM binding intensity (ln): 10.2

Recorded result, CACACTAAAAGACACACACACACACGCATATAAATA [CACACA_site7874] , gcPBM binding intensity (ln): 10.2

Recorded result, AAAAAAAAAACAAATACACACGCACCCAAAAAAAAA [CACACA_site8166] , gcPBM binding intensity (ln): 9.81

Recorded result, ATATATTATATAAAAAGTACTAAAATAGTAAGATGT [XGTACX_site7493] , gcPBM binding intensity (ln): 9.65

Recorded result, AAAAGGAACAGACACACACACATATATAAATATGTA [CACACA_site7656] , gcPBM binding intensity (ln): 9.97

Recorded result, ATATAATAAAATGACACACGCATATATATATATATA [CACACA_site2789] , gcPBM binding intensity (ln): 9.33

Recorded result, CTCAATATTATTACTACACACAAATTAAAATTTTCC [CACACA_site4203] , gcPBM binding intensity (ln): 9.45

Recorded result, TATACGTATACCTATACACACATATATATATATATA [CACACA_site1273] , gcPBM binding intensity (ln): 9.49

Recorded result, TATATACACGCACATACACACAAATAAAAAAACACC [CACACA_site7578] , gcPBM binding intensity (ln): 9.93

Recorded result, TATATACACATATATACACACACATATATATATATA [CACACA_site9127] , gcPBM binding intensity (ln): 9.79

Recorded result, AATATAAACAAACACACACACATATATATATATATT [CACACA_site5592] , gcPBM binding intensity (ln): 10.1

Recorded result, TTATAAAAAAAAATAACACACAGACATAAGAATAAA [CACACA_site9383] , gcPBM binding intensity (ln): 9.95

Recorded result, TTTTATGTAATTATTTGTACATATGCCTCTTAAACT [XGTACX_site748] , gcPBM binding intensity (ln): 9.19
